# Test Target: rat mGluR5 receptor (Rattus norvegicus)
# Construct: expressed in transfected cells; host or cells: HEK-293
# Protocol: [3H]-MPEP displacement binding assay, HEK-293 cell membranes expressing rat mGluR5
# Condition Context: @ 10 μM compound; Biological Activity, Table 2A; read-out: PCT INHIB (%) @ 10 μM
Outcome: 1.0 for inhibition at 10 µM of at least 50%; 0.0 for anything lower.

COc1ccc(C(=O)N2CCN(c3ncccc3C#N)CC2)cc1C#Cc1ccccc1
1.0
N#Cc1ccc(N2CCN(C(=O)c3cncc(C#Cc4ccccc4)c3)CC2)nc1
0.0
COc1ccc(C(=O)N2CCN(c3cc(C)ccn3)CC2)cc1C#Cc1ccccc1
1.0
O=C(c1cncc(C#Cc2ccccc2)c1)N1CCN(c2ncccn2)CC1
0.0
N#Cc1cccnc1N1CCN(C(=O)c2cccc(C#Cc3ccccn3)c2)CC1
1.0
COc1nsnc1N1CCN(C(=O)c2cccc(C#Cc3ccccn3)c2)CC1
1.0
O=C(c1cncc(C#Cc2ccccc2)c1)N1CCN(c2ccc(C(F)(F)F)cn2)CC1
0.0
COc1cccc(N2CCN(C(=O)c3cccc(C#Cc4ccccc4)c3)CC2)c1
1.0
Cc1cc(C)nc(N2CCN(C(=O)c3ccnc(C#Cc4ccccc4)c3)CC2)n1
0.0
COc1ccc(C(=O)N2CCN(c3ncccn3)CC2)cc1C#Cc1ccccc1
1.0
Cc1cccc(N2CCN(C(=O)c3ccnc(C#Cc4ccccc4)c3)CC2)n1
0.0
O=C(c1cccc(C#Cc2ccccc2)c1)N1CCN(c2ccc([N+](=O)[O-])cc2)CC1
0.0
Cc1cnc(C)c(N2CCN(C(=O)c3cccc(C#Cc4ccccn4)c3)CC2)n1
0.0
N#Cc1ccc(N2CCN(C(=O)c3cccc(C#Cc4ccccc4)c3)CC2)nc1
0.0
N#Cc1cccnc1N1CCN(C(=O)c2ccnc(C#Cc3ccccc3)c2)CC1
0.0
Cc1cc(C)nc(N2CCN(C(=O)c3cccc(C#Cc4ccccn4)c3)CC2)n1
1.0

###

pIC50 values for the compounds below.
# Test Target: mGluR5 (Rattus norvegicus, UniProt P31424)
# Sequence (P31424 21-1203): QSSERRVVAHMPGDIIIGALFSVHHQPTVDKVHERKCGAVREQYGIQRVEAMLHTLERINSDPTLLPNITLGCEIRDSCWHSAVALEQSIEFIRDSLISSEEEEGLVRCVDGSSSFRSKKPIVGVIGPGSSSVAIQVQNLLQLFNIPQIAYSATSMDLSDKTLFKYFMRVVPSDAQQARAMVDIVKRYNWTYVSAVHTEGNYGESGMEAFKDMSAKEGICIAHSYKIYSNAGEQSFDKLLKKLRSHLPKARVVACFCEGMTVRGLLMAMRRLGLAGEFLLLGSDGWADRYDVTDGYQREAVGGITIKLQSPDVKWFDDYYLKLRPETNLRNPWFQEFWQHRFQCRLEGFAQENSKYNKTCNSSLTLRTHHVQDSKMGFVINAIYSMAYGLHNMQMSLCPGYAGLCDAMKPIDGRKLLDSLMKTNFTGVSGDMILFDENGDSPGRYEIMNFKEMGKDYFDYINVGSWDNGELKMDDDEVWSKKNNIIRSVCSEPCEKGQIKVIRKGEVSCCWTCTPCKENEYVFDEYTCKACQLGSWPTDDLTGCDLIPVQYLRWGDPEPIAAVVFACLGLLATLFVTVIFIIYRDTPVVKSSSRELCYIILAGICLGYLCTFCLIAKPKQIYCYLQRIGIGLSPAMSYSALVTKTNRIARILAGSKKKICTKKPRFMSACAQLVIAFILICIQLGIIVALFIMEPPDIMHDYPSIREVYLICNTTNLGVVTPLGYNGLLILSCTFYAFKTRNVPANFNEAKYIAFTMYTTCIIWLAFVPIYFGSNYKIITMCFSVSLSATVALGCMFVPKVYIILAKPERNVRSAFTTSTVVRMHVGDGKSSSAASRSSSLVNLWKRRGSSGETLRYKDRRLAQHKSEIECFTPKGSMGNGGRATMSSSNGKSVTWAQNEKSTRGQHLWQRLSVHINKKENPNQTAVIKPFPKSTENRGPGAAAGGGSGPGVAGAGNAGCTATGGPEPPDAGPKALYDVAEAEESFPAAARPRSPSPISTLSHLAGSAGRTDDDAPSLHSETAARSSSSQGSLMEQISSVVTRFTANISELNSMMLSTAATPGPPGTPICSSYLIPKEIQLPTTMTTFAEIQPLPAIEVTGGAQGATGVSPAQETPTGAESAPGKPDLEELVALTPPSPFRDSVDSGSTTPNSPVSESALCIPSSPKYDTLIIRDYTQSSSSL
# Protocol: IC50 column under 'Biological Activity' (assay not identified in the shown text; not the binding Ki)
pIC50: −log10 of the molar value.
Endpoint: pIC50

COc1ccc(C(=O)N2CCN(c3nccs3)CC2)cc1C#Cc1ccccn1 [Compound 247]
7.07
COc1ccc(C(=O)N2CCN(c3nccc(C(F)(F)F)n3)CC2)cc1C#Cc1ccccn1 [Compound 194]
7.11

###

Measured Ki values are reported for all entries that follow.
# Test Target: rat mGluR5 receptor (Rattus norvegicus)
# Construct: expressed in transfected cells; host or cells: HEK-293
# Protocol: [3H]-MPEP displacement binding assay, HEK-293 cell membranes expressing rat mGluR5
# Condition Context: [3H]-MPEP displacement, rat mGluR5; read-out: Median Ki
Endpoint: Ki (nM)

COc1ccc(C(=O)N2CCN(c3ccc(C(C)=O)cc3)CC2)cc1C#Cc1ccccn1
21
COc1ccc(C(=O)N2CCN(Cc3ccccc3)C(=O)C2)cc1C#Cc1ccccn1
61
COc1ccc(C(=O)N2CCN(c3ncccn3)CC2)cc1C#Cc1ccccc1Cl
4500
COc1ccc(C(=O)N2CCN(c3ccc(C)cc3)CC2)cc1C#Cc1ccccn1
74
COc1ccc(C(=O)N2CCN(Cc3ccc(Cl)c(Cl)c3)CC2)cc1C#Cc1ccccn1
170
COc1ccc(C(=O)N2CCN(c3ccccc3C)CC2)cc1C#Cc1ccccn1
100
COc1ccc(C(=O)N2CCN(c3ncccc3Cl)CC2)cc1C#Cc1ccc(Cl)cc1
3190
COc1ccc(C(=O)N2CCN(c3ccccc3)CC2C)cc1C#Cc1ccccn1 (stereo not drawn)
24
COc1cccc(N2CCN(C(=O)c3ccc(OC)c(C#Cc4ccccn4)c3)CC2)c1
15
COc1ccc(C(=O)N2CCN(c3cc(C)ccn3)CC2)cc1C#Cc1ccccn1
19
COc1ccc(C(=O)N2CCN(c3cc4ccc(Cl)cc4cn3)CC2)cc1C#Cc1ccccn1
951
COc1ccc(C(=O)N2C[C@@H]3C[C@@H]2CN3c2ccc(C)cc2)cc1C#Cc1ccccn1
277
CCOc1ccc(C(=O)N2CCN(c3ccccn3)CC2)cc1C#Cc1ccccn1
18
COc1ccc(C(=O)N2CCN(c3ncc(F)c(N)n3)CC2)cc1C#Cc1ccccn1
30
COc1ccc(C(=O)N2CCN(S(=O)(=O)c3cccc4c(N(C)C)cccc34)CC2)cc1C#Cc1ccccn1
1740
COc1ccc(C(=O)N2CCN(c3ccc(Cl)c(Cl)c3)CC2)cc1C#Cc1ccccn1
48
COc1nc(OC)nc(N2CCN(C(=O)c3ccc(OC)c(C#Cc4ccccn4)c3)CC2)n1
229
COc1ccc(C(=O)N2CCN(C(=O)c3ccccc3)CC2)cc1C#Cc1ccccn1
54
O=C(c1ccc(OCC2CC2)c(C#Cc2ccccn2)c1)N1CCN(c2ccccn2)CC1
198
COc1ccc(C(=O)N2CCN(Cc3ccc4c(c3)OCO4)CC2)cc1C#Cc1ccccn1
38
O=C(c1ccc(OC(F)(F)F)c(C#Cc2ccccn2)c1)N1CCN(c2ncccc2Cl)CC1
1070
COc1ccc(C(=O)N2CCN(c3nnc(Cl)cc3C)CC2)cc1C#Cc1ccccn1
39
COc1ccc(C(=O)N2CCCN(c3ccc([N+](=O)[O-])cn3)CC2)cc1C#Cc1ccccn1
2190
COc1ccc(C(=O)N2CCN(c3ccc(Cl)cn3)CC2)cc1C#Cc1ccccn1
7
COc1ccc(C(=O)N2CCN(c3ccncc3)CC2)cc1C#Cc1ccccn1
78
COc1ccc(C(=O)N2CCN(C(=O)c3ccco3)CC2)cc1C#Cc1ccccn1
41
Cc1ccc(C(=O)N2CCN(c3ncccn3)CC2)cc1C#Cc1ccccn1
34
COc1ccc(C(=O)N2CCN(Cc3ccc(Br)cc3F)CC2)cc1C#Cc1ccccn1
7
COc1ccc(C(=O)N2CCN(c3cccc(F)c3)CC2)cc1C#Cc1ccccn1
10
COc1ccc(C(=O)N2CCN(S(=O)(=O)c3ccccc3Cl)CC2)cc1C#Cc1ccccn1
876
COc1ccc(C(=O)N2CCN(c3ccc(C(F)(F)F)cc3)CC2)cc1C#Cc1ccccn1
674
COc1ccc(C(=O)N2CCN(c3ccnc(SC)n3)CC2)cc1C#Cc1ccccn1
22
O=C(c1ccc(OC(F)(F)F)c(C#Cc2ccccn2)c1)N1CCN(c2ccccn2)CC1
2

###

Parameter: pKi. Scope: all listed entries.
# Test Target: rat mGluR5 receptor (Rattus norvegicus, UniProt P31424)
# Construct: expressed in transfected cells; host or cells: HEK-293
# Sequence (P31424 21-1203): as above
# Protocol: [3H]-MPEP displacement binding assay, HEK-293 cell membranes expressing rat mGluR5
# Condition Context: Biological Activity, Table 2A; read-out: Median Ki
# Procedure: MGluR5 expressing HEK-293 cells were scraped off a plate, transferred to centrifuge tubes and washed twice by centrifugation (2000 rpm for 10 minutes, at 4° C.) in buffer (50 mM Tris pH 7.5). The resulting pellets were aliquoted and stored at minus 80° C. […] Non-specific binding was determined in the presence of 10 μM MPEP. […] Percent inhibition and Ki values were generated by GraphPad Prism and Excel Fit. IC50 values were calculated using GraphPad by fitting to a 1 or 2 site-binding model. […]
pKi: −log10 of the molar value.
Endpoint: pKi

CC1CN(C(=O)c2cccc(C#Cc3ccccn3)c2)CCN1c1ccccn1 (stereo not drawn) [Compound 105]
6.08
COc1nsnc1N1CCN(C(=O)c2cccc(C#Cc3ccccn3)c2)CC1 [Compound 102]
7.10
Cc1cccc(N2CCN(C(=O)c3cccc(C#Cc4ccccn4)c3)CC2)n1 [Compound 147]
5.52
COc1ccc(C(=O)N2CCN(c3cccc(C)n3)CC2)cc1C#Cc1ccccc1 [Compound 116]
6.07
Cc1ccnc(N2CCN(C(=O)c3cncc(C#Cc4ccccc4)c3)CC2)c1 [Compound 133]
6.19
COc1ccc(C(=O)N2CCN(c3ccc(C#N)cn3)CC2)cc1C#Cc1ccccc1 [Compound 113]
6.45
COc1cccc(N2CCN(C(=O)c3cccc(C#Cc4ccccc4)c3)CC2)c1 [Compound 81]
5.47
CC1CN(c2ccccn2)CCN1C(=O)c1cccc(C#Cc2ccccn2)c1 (stereo not drawn) [Compound 98]
6.17
N#Cc1ccc(N2CCN(C(=O)c3cccc(C#Cc4ccccn4)c3)CC2)nc1 [Compound 96]
5.49

###

# Test Target: rat mGluR5 receptor (Rattus norvegicus, UniProt P31424)
# Construct: expressed in transfected cells; host or cells: HEK-293
# Protocol: [3H]-MPEP displacement binding assay, HEK-293 cell membranes expressing rat mGluR5
# Condition Context: @ 10 μM compound; Biological Activity, Table 2A; read-out: PCT INHIB (%) @ 10 μM
# Description: MGluR5 expressing HEK-293 cells were scraped off a plate, transferred to centrifuge tubes and washed twice by centrifugation (2000 rpm for 10 minutes, at 4° C.) in buffer (50 mM Tris pH 7.5). The resulting pellets were aliquoted and stored at minus 80° C. […] Non-specific binding was determined in the presence of 10 μM MPEP. […] Percent inhibition and Ki values were generated by GraphPad Prism and Excel Fit. IC50 values were calculated using GraphPad by fitting to a 1 or 2 site-binding model. […]
// class assignment uses inhibition at 10 µM with these ranges: lower bin = under 20%, middle bin = from 20% up to 60%, upper bin = 60% and over

O=C(c1ccnc(C#Cc2ccccc2)c1)N1CCN(c2ccc(C(F)(F)F)cn2)CC1
lower bin
COc1ccc(C(=O)N2CCN(c3cccc(C(F)(F)F)n3)CC2)cc1C#Cc1ccccc1
middle bin
Cc1cccc(N2CCN(C(=O)c3cccc(C#Cc4ccccn4)c3)CC2)n1
upper bin
O=C(c1ccnc(C#Cc2ccccc2)c1)N1CCN(c2ccccn2)CC1
upper bin
Cc1ccnc(N2CCN(C(=O)c3ccnc(C#Cc4ccccc4)c3)CC2)c1
upper bin
O=C(c1ccnc(C#Cc2ccccc2)c1)N1CCN(c2ncccn2)CC1
middle bin
O=C(c1cccc(C#Cc2ccccc2)c1)N1CCN(c2ccc(O)cc2)CC1
upper bin
COc1cccnc1N1CCN(C(=O)c2cccc(C#Cc3ccccn3)c2)CC1
middle bin
N#Cc1ccc(N2CCN(C(=O)c3ccnc(C#Cc4ccccc4)c3)CC2)nc1
lower bin
Cc1cc(C)nc(N2CCN(C(=O)c3cccc(C#Cc4ccccc4)c3)CC2)n1
lower bin
O=C(c1cccc(C#Cc2ccccc2)c1)N1CCN(c2ccc(Cl)cc2)CC1
middle bin
O=C(c1cncc(C#Cc2ccccc2)c1)N1CCN(c2ncccc2C(F)(F)F)CC1
lower bin
Cc1c(C#Cc2ccccc2)cccc1C(=O)N1CCN(c2ccccn2)CC1
lower bin
O=C(c1cncc(C#Cc2ccccc2)c1)N1CCN(c2ccccn2)CC1
middle bin
O=C(c1ccnc(C#Cc2ccccc2)c1)N1CCN(c2cnccn2)CC1
middle bin
